experiment: Cmax in patient with acute lymphoblastic leukemia infected with Candida albicans FP633 at 1.2 mg/kg administered once daily after 17 days by HPLC; type: ADME, organism-based; set-up: dose 1.2 mg/kg; settings: human, in vivo
*1 amine or outer side, *2 acyl side, *3 side chain or, on linkers, in order; H or OH if unused. Where a SMILES comes first, the peptide text is derived from it. Bridges are numbered along the chain shown (N, C = ends). [ ]: non-standard residue; d: D form. The star is where a group is joined. hTyr(3S-OH,4S-OH,3'-OSO3H) = N[C@H](C(=O)O)[C@H](O)[C@@H](O)c1ccc(O)c(OS(=O)(=O)O)c1; Orn(4R-OH,5R-OH) = O=C([C@H](C[C@@H](O)[C@@H](O)N[*:3])N[*:1])[*:2]; Pro(3S-OH,4S-Me) = C[C@H]1CN[C@H](C(=O)O)[C@H]1O; X1 = CCCCCOc1ccc(-c2cc(-c3ccc(C(=O)*)cc3)no2)cc1; Gln(3R-OH) = NC(=O)C[C@@H](O)[C@H](N)C(=O)O; Hyp = O=C(O)[C@@H]1C[C@@H](O)CN1
quantity_measured: Cmax (ng/mL)
Numbers only, in ng/mL.

**Query** // returns reported Cmax for input CCCCCOc1ccc(-c2cc(-c3ccc(C(=O)N[C@H]4C[C@@H](O)[C@@H](O)NC(=O)[C@@H]5[C@@H](O)[C@@H](C)CN5C(=O)[C@H]([C@H](O)CC(N)=O)NC(=O)[C@H]([C@H](O)[C@@H](O)c5ccc(O)c(OS(=O)(=O)O)c5)NC(=O)[C@@H]5C[C@@H](O)CN5C(=O)[C@H]([C@@H](C)O)NC4=O)cc3)no2)cc1 [MICAFUNGIN] (X1-[Orn(4R-OH,5R-OH)]T[Hyp][hTyr(3S-OH,4S-OH,3'-OSO3H)][Gln(3R-OH)][Pro(3S-OH,4S-Me)]; lactam 1-C)
**Result** 6500

* * *

experiment: Cmax in patient with malignant lymphoma infected with Candida albicans FP633 at 5.8 mg/kg administered once daily after 8 days by HPLC; format: ADME, organism-based; set-up: dose 5.8 mg/kg; settings: human, in vivo
*1 amine or outer side, *2 acyl side, *3 side chain or, on linkers, in order; H or OH if unused. Where a SMILES comes first, the peptide text is derived from it. Bridges are numbered along the chain shown (N, C = ends). [ ]: non-standard residue; d: D form. The star is where a group is joined. hTyr(3S-OH,4S-OH,3'-OSO3H) = N[C@H](C(=O)O)[C@H](O)[C@@H](O)c1ccc(O)c(OS(=O)(=O)O)c1; Orn(4R-OH,5R-OH) = O=C([C@H](C[C@@H](O)[C@@H](O)N[*:3])N[*:1])[*:2]; Pro(3S-OH,4S-Me) = C[C@H]1CN[C@H](C(=O)O)[C@H]1O; X1 = CCCCCOc1ccc(-c2cc(-c3ccc(C(=O)*)cc3)no2)cc1; Gln(3R-OH) = NC(=O)C[C@@H](O)[C@H](N)C(=O)O; Hyp = O=C(O)[C@@H]1C[C@@H](O)CN1
quantity_measured: Cmax (ng/mL)
One number for each entry, in ng/mL.

**Query** I have this molecule here, CCCCCOc1ccc(-c2cc(-c3ccc(C(=O)N[C@H]4C[C@@H](O)[C@@H](O)NC(=O)[C@@H]5[C@@H](O)[C@@H](C)CN5C(=O)[C@H]([C@H](O)CC(N)=O)NC(=O)[C@H]([C@H](O)[C@@H](O)c5ccc(O)c(OS(=O)(=O)O)c5)NC(=O)[C@@H]5C[C@@H](O)CN5C(=O)[C@H]([C@@H](C)O)NC4=O)cc3)no2)cc1 [MICAFUNGIN] (X1-[Orn(4R-OH,5R-OH)]T[Hyp][hTyr(3S-OH,4S-OH,3'-OSO3H)][Gln(3R-OH)][Pro(3S-OH,4S-Me)]; lactam 1-C) , and I need its recorded Cmax.
**Result** 33600

* * *

assay: Cmax in patient with malignant lymphoma infected with Candida albicans FP633 at 4.8 mg/kg administered once daily after 43 days by HPLC; type: ADME, organism-based; design: dose 4.8 mg/kg; details: human, in vivo
*1 amine or outer side, *2 acyl side, *3 side chain or, on linkers, in order; H or OH if unused. Where a SMILES comes first, the peptide text is derived from it. Bridges are numbered along the chain shown (N, C = ends). [ ]: non-standard residue; d: D form. The star is where a group is joined. hTyr(3S-OH,4S-OH,3'-OSO3H) = N[C@H](C(=O)O)[C@H](O)[C@@H](O)c1ccc(O)c(OS(=O)(=O)O)c1; Orn(4R-OH,5R-OH) = O=C([C@H](C[C@@H](O)[C@@H](O)N[*:3])N[*:1])[*:2]; Pro(3S-OH,4S-Me) = C[C@H]1CN[C@H](C(=O)O)[C@H]1O; X1 = CCCCCOc1ccc(-c2cc(-c3ccc(C(=O)*)cc3)no2)cc1; Gln(3R-OH) = NC(=O)C[C@@H](O)[C@H](N)C(=O)O; Hyp = O=C(O)[C@@H]1C[C@@H](O)CN1
quantity_measured: Cmax (ng/mL)
One number for each entry, in ng/mL.

**Query** Looking for the measured Cmax of CCCCCOc1ccc(-c2cc(-c3ccc(C(=O)N[C@H]4C[C@@H](O)[C@@H](O)NC(=O)[C@@H]5[C@@H](O)[C@@H](C)CN5C(=O)[C@H]([C@H](O)CC(N)=O)NC(=O)[C@H]([C@H](O)[C@@H](O)c5ccc(O)c(OS(=O)(=O)O)c5)NC(=O)[C@@H]5C[C@@H](O)CN5C(=O)[C@H]([C@@H](C)O)NC4=O)cc3)no2)cc1 [MICAFUNGIN] (X1-[Orn(4R-OH,5R-OH)]T[Hyp][hTyr(3S-OH,4S-OH,3'-OSO3H)][Gln(3R-OH)][Pro(3S-OH,4S-Me)]; lactam 1-C) , can you help?
**Result** 37100

* * *

experiment: Cmax in patient with myelodysplastic syndrome infected with Candida albicans FP633 at 1.4 mg/kg administered once daily after 45 days by HPLC; format: ADME, organism-based; set-up: dose 1.4 mg/kg; details: human, in vivo
*1 amine or outer side, *2 acyl side, *3 side chain or, on linkers, in order; H or OH if unused. Where a SMILES comes first, the peptide text is derived from it. Bridges are numbered along the chain shown (N, C = ends). [ ]: non-standard residue; d: D form. The star is where a group is joined. hTyr(3S-OH,4S-OH,3'-OSO3H) = N[C@H](C(=O)O)[C@H](O)[C@@H](O)c1ccc(O)c(OS(=O)(=O)O)c1; Orn(4R-OH,5R-OH) = O=C([C@H](C[C@@H](O)[C@@H](O)N[*:3])N[*:1])[*:2]; Pro(3S-OH,4S-Me) = C[C@H]1CN[C@H](C(=O)O)[C@H]1O; X1 = CCCCCOc1ccc(-c2cc(-c3ccc(C(=O)*)cc3)no2)cc1; Gln(3R-OH) = NC(=O)C[C@@H](O)[C@H](N)C(=O)O; Hyp = O=C(O)[C@@H]1C[C@@H](O)CN1
quantity_measured: Cmax (µg/mL)
Answers are plain numbers, in µg/mL.

**Query** Recorded Cmax of CCCCCOc1ccc(-c2cc(-c3ccc(C(=O)N[C@H]4C[C@@H](O)[C@@H](O)NC(=O)[C@@H]5[C@@H](O)[C@@H](C)CN5C(=O)[C@H]([C@H](O)CC(N)=O)NC(=O)[C@H]([C@H](O)[C@@H](O)c5ccc(O)c(OS(=O)(=O)O)c5)NC(=O)[C@@H]5C[C@@H](O)CN5C(=O)[C@H]([C@@H](C)O)NC4=O)cc3)no2)cc1 [MICAFUNGIN] (X1-[Orn(4R-OH,5R-OH)]T[Hyp][hTyr(3S-OH,4S-OH,3'-OSO3H)][Gln(3R-OH)][Pro(3S-OH,4S-Me)]; lactam 1-C) , please.
**Result** 6.7

* * *

assay: Cmax in patient with acute myeloid leukemia infected with Candida albicans FP633 at 1.1 mg/kg administered once daily after 8 days by HPLC; type: ADME, organism-based; set-up: dose 1.1 mg/kg; settings: human, in vivo
*1 amine or outer side, *2 acyl side, *3 side chain or, on linkers, in order; H or OH if unused. Where a SMILES comes first, the peptide text is derived from it. Bridges are numbered along the chain shown (N, C = ends). [ ]: non-standard residue; d: D form. The star is where a group is joined. hTyr(3S-OH,4S-OH,3'-OSO3H) = N[C@H](C(=O)O)[C@H](O)[C@@H](O)c1ccc(O)c(OS(=O)(=O)O)c1; Orn(4R-OH,5R-OH) = O=C([C@H](C[C@@H](O)[C@@H](O)N[*:3])N[*:1])[*:2]; Pro(3S-OH,4S-Me) = C[C@H]1CN[C@H](C(=O)O)[C@H]1O; X1 = CCCCCOc1ccc(-c2cc(-c3ccc(C(=O)*)cc3)no2)cc1; Gln(3R-OH) = NC(=O)C[C@@H](O)[C@H](N)C(=O)O; Hyp = O=C(O)[C@@H]1C[C@@H](O)CN1
quantity_measured: Cmax (ng/mL)
Numbers only, in ng/mL.

**Query** So what's the measured Cmax for this one? CCCCCOc1ccc(-c2cc(-c3ccc(C(=O)N[C@H]4C[C@@H](O)[C@@H](O)NC(=O)[C@@H]5[C@@H](O)[C@@H](C)CN5C(=O)[C@H]([C@H](O)CC(N)=O)NC(=O)[C@H]([C@H](O)[C@@H](O)c5ccc(O)c(OS(=O)(=O)O)c5)NC(=O)[C@@H]5C[C@@H](O)CN5C(=O)[C@H]([C@@H](C)O)NC4=O)cc3)no2)cc1 [MICAFUNGIN] (X1-[Orn(4R-OH,5R-OH)]T[Hyp][hTyr(3S-OH,4S-OH,3'-OSO3H)][Gln(3R-OH)][Pro(3S-OH,4S-Me)]; lactam 1-C)
**Result** 8400

# credit: ChEMBL document CHEMBL1649249
